Test: RPMI8226 myeloma cell viability, profiling panel, resazurin fluorescence, basal, 24 h, PK04 Diversity Set (AID 1180);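 note: RPMI8826 multiple myeloma cell line at 5000 cells per well; test concentration not given here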
Conditions: higher = more signal
quantityName: z-score
One number for each entry.

Known results for compounds:
COC(=O)[C@@]1(Cc2ccc(OC)cc2)[C@H]2c3cc(C(=O)N(C)C)n(Cc4ccc(C)c(F)c4F)c3C[C@H]2CN1C(=O)c1ccccc1: 1.37
O=C1c2ccccc2[C@](Cc2ccccc2I)(C(=O)NCC(F)(F)F)[C@H](c2ccc(CO)cc2)N1Cc1ccccc1C(F)(F)F: 1.69
[N-]=[N+]=NCc1ccccc1C[C@@]1(C(=O)O)N=C(c2ccc(OCCCO)cc2)O[C@@H]1c1ccccc1N=[N+]=[N-]: -0.876
C[C@]1(C(=O)NCc2ccccc2)c2ccccc2C(=O)N(Cc2cc(C(F)(F)F)cc(C(F)(F)F)c2)[C@H]1c1ccc(CO)cc1: 1.12
O=C1OCCC/C=C\[C@H]2OC34C=CCN(CCN5CCOCC5)C(=O)[C@H]3N(CCCCCO)C(=O)[C@@H]4C12 (some centres undefined): 0.0501
CCc1cccc(NC(=O)O[C@H]2[C@H](OC(=O)Nc3ccccc3)[C@@H](OC(=O)Nc3ccccc3)[C@@H](OC)O[C@@H]2CO)c1: -4.86
O=C1OCCC=C[C@H]2OC34C=CCN(Cc5ccccc5)C(=O)[C@H]3N(CCO)C(=O)[C@@H]4C12 (some centres undefined): 0.47
CCCC=C(CCC)[C@@H](NS(=O)(=O)c1ccc(-c2ccccc2)cc1)c1ccc(C(=O)OC)cc1: 0.305
C[C@@H]1NC(=O)[C@H](Cc2ccccc2)NC(=O)[C@@]23C(=O)N[C@@H](Cc4ccccc4)C2[C@H](C)[C@@]2(C)O[C@H]2C3/C=C/C/C=C\CNC1=O (some centres undefined): -0.0497
C=CCN1C(=O)[C@@]2(O[C@@H](CCn3cc([C@H](O)c4ccccc4)nn3)[C@H]([Si](C)(C)c3ccc(OC)cc3)[C@H]2C)c2cc(N3CCOC3=O)ccc21: -1.24

Each compound below has a reported value. Please supply its z-score.
1. C#CCCCON=C1C[C@@H](O)[C@@H](O)[C@@H]2[C@@H]3C(=O)N(Cc4ccc5c(c4)OCO5)C(=O)[C@@H]3CC[C@H]12
2. CCCC[C@@H]1C[C@H]1[C@@H](NC(=O)c1cccs1)c1ccc(Cl)cc1
3. C=CC[C@@]12N=C(c3ccc(OCCCO)cc3)O[C@@H]1c1ccccc1CN(Cc1ccccc1)C2=O
4. NC(=O)NCC#Cc1ccc2c(c1)[C@]1(C(=O)N2)[C@H](C(=O)N2CCCCCCC2)[C@H]2C(=O)O[C@H](c3ccccc3)[C@H](c3ccccc3)N2[C@@H]1c1ccccc1OCCO

RESULT:
0.126
0.513
-3.21
1.13
